Every entry's value here was drawn from patent US20050075388A1.

Recorded melting point for the following compounds
quantity: melting point

compound	quantity	recordedValue
O=Cc1ccccc1C(c1c(O)c2ccc(O)cc2oc1=O)c1c(O)c2ccc(O)cc2oc1=O	melting point	> 300 °C
O=Cc1ccccc1C(c1c(O)c2ccc(O)c(O)c2oc1=O)c1c(O)c2ccc(O)c(O)c2oc1=O	melting point	> 300 °C
O=c1oc2cc(O)ccc2c(O)c1-c1coc2c1c(=O)oc1cc(O)ccc12	melting point	> 300 °C
O=c1oc2cc(O)c(O)cc2c(O)c1C1=CCOc2oc3ccccc3c(=O)c21	melting point	258 to 260 °C
O=CC(c1c(O)c2ccc(O)cc2oc1=O)c1c(O)c2ccc(O)cc2oc1=O	melting point	> 300 °C
O=c1oc2cc(O)cc(O)c2c(O)c1C1=CCOc2oc3ccccc3c(=O)c21	melting point	254 to 256 °C
COC1Oc2c(c(=O)oc3cc(O)ccc23)C1c1c(O)c2ccc(O)cc2oc1=O (stereo not drawn)	melting point	> 300 °C
O=c1oc2ccccc2c(O)c1C(CCCC(c1c(O)c2ccccc2oc1=O)c1c(O)c2ccccc2oc1=O)c1c(O)c2ccccc2oc1=O	melting point	291 to 294 °C
O=c1oc2c(O)c(O)ccc2c(O)c1C(CCCC(c1c(O)c2ccc(O)c(O)c2oc1=O)c1c(O)c2ccc(O)c(O)c2oc1=O)c1c(O)c2ccc(O)c(O)c2oc1=O	melting point	> 300 °C
